The following molecules are shown together with reported remaining activity at 10 µM values.
- system under test: ROCK 2 (Homo sapiens)
- Sequence (O75116 whole entry): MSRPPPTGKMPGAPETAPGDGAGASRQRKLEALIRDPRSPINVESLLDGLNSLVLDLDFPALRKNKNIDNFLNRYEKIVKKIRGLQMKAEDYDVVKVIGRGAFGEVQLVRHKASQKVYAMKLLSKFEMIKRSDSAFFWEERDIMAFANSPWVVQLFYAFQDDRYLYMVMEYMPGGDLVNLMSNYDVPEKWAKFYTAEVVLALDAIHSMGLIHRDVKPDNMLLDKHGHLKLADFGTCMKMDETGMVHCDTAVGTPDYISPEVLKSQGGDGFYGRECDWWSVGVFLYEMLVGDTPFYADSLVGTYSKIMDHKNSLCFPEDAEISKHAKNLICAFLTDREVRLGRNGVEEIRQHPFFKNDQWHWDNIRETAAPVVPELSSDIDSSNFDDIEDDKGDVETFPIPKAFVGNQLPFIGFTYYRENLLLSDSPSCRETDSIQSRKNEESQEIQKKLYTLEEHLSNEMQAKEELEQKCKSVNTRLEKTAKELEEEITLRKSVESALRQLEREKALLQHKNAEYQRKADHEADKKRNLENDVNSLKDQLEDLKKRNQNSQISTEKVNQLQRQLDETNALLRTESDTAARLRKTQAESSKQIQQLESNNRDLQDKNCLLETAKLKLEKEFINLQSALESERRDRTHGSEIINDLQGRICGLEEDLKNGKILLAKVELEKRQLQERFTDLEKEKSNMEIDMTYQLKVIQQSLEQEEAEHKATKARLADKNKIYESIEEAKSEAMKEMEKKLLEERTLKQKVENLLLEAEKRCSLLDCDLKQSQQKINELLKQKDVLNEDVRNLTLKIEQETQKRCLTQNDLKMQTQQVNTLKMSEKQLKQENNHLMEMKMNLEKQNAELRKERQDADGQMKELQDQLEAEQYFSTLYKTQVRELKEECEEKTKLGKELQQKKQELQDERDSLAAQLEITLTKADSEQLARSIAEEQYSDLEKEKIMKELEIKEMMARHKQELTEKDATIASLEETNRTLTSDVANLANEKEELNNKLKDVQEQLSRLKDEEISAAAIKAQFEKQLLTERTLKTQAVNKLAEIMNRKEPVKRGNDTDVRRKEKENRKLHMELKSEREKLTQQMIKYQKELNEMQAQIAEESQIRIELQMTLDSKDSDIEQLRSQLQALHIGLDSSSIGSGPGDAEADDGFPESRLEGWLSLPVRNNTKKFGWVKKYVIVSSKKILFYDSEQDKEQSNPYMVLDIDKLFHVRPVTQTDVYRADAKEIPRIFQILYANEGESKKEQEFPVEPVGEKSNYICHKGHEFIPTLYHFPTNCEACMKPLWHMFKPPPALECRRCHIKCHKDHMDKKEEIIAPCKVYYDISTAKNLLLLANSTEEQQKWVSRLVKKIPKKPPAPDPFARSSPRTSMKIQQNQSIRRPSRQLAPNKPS
- experimental protocol: Kinase panel: ROCK 2
- Type: biochemical, human/mammalian
- conditions used: compound at 10 μM, read-out: % of activity respect of the control
The figure you give is taken to be in %; do not add the unit.

Study these solved cases before continuing.
1) O=c1[nH]c2ncc(-c3ccc(F)cc3)nc2n1C1CCCCC1 ... 84
2) O=c1[nH]c2ncc(-c3ccc(F)cc3)nc2n1CC1CC1 ... 78

The recorded remaining activity at 10 µM for entry CC(c1ccccc1)n1c(=O)[nH]c2ncc(-c3ccc(F)cc3)nc21 (stereo not shown) equals 105

The recorded remaining activity at 10 µM for entry C[C@H](c1ccccc1)n1c(=O)[nH]c2ncc(-c3ccccc3)nc21 equals 85

* * *

- system under test: MNK2 (Homo sapiens, UniProt Q9HBH9)
- Sequence (Q9HBH9 whole entry): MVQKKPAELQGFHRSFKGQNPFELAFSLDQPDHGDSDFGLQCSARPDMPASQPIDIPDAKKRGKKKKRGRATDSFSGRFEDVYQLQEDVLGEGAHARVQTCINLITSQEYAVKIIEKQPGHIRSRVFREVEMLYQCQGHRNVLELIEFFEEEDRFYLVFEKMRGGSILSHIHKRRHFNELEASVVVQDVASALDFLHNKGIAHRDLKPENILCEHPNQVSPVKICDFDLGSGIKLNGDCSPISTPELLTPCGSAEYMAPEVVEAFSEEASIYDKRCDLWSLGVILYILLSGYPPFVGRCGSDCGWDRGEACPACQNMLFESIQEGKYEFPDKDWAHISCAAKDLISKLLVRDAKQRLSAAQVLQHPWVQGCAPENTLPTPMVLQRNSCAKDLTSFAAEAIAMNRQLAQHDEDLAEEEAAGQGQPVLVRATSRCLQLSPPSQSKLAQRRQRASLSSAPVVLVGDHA
- experimental protocol: Kinase panel: MNK2
- Assay type: biochemical, human/mammalian
- conditions used: compound at 10 μM, read-out: % of activity respect of the control
- Procedure: The DDU kinase-focused compound set contains lead-like scaffolds that are designed to target protein kinases; they have kinase hinge binding motifs. Four of the 1H-imidazopyrazinones were screened against a human/mammalian kinase panel at the University of Dundee (http://www.kinase-screen.mrc.ac.uk) at a concentration of 10 μM. At the time of testing the panel contained 79 mammalian kinases selected to provide a broad coverage of the mammalian kinome (∼500 kinases in the human genome).[3] […]
metric: remaining activity at 10 µM (%)
The figure you give is taken to be in %; do not add the unit.

Study these solved cases before continuing.
1. C[C@H](c1ccccc1)n1c(=O)[nH]c2ncc(-c3ccccc3)nc21 ... 97
2. O=c1[nH]c2ncc(-c3ccc(F)cc3)nc2n1C1CCCCC1 ... 103
3. O=c1[nH]c2ncc(-c3ccc(F)cc3)nc2n1CC1CC1 ... 99

The recorded remaining activity at 10 µM for entry CC(c1ccccc1)n1c(=O)[nH]c2ncc(-c3ccc(F)cc3)nc21 (stereo not shown) equals 106

* * *

- experimental protocol: In vivo pharmacokinetics in mice
- Set-up: species or system female NMRI mice
- conditions used: mouse, whole blood, po, 20 mg kg^−1, female NMRI mice, blood
metric: Cmax (ng/mL)
The figure you give is taken to be in ng/mL; do not add the unit.

The recorded Cmax for entry O=c1[nH]c2ncc(-c3ccccc3CO)nc2n1C1CCCCC1 equals 910

* * *

- Tested on: T. brucei bloodstream-stage cells
- experimental protocol: Static–cidal (SC) assay
- Assay type: cell-based, Trypanosoma brucei brucei
- conditions used: Trypanosoma brucei; static cidal EC50, second site/phase; 48 h; read-out: SC EC50(2)
The following compounds are shown together with reported pEC50 values.
Remember, pEC50 is on a log scale: it is -log10 of the molar concentration.

Study these solved cases before continuing.
1) O=c1[nH]c2ncc(-c3cccc(CO)c3)nc2n1C1CCCCC1 ... 4.52
2) O=c1[nH]c2ncc(-c3ccccc3)cc2n1C1CCCCC1 ... 4.39
3) COCC(C)n1c(=O)[nH]c2ncc(-c3ccccc3)nc21 (stereo not shown) ... 4.49
4) c1cncc(-c2cnc3[nH]nc(C4CCCCC4)c3c2)c1 ... 5.21

In the following, a different compound is considered.
Item c1ccc(-c2cnc3[nH]nc(C4CCCCC4)c3c2)cc1 ; assay system T. brucei bloodstream-stage cells; pEC50 reported as 5.10
